So I've got a bunch of molecules here, and I need their IC50 values.
System: platelet aggregation
Test: Antiplatelet aggregation test in rabbit platelet-rich plasma, synthetic C16:0 PAF-induced (method of Born et al.)
Format: cell-based
Conditions: Oryctolagus cuniculus, platelet count 6×10^5 /μl, C16:0 PAF final 1×10^-8 -3×10^-8 M, read-out: IC50 (concentration necessary to inhibit aggregation by 50%)

>>> print(df.to_string())
                                   molecule  measured_endpoint  data_value
0  CC1=CCCC2(C)OC2C(=O)C2=CC(O)C(C)C(C)(CC1)C2(C)O (centres unmarked)               IC50       17 µM

As a next step, examine the molecule that follows.
Supply recorded IC50 for CC1=CCCC2(C)OC3CC(C)C(C)(CC1)C1=C3C(O)(OC1)C2O (centres unmarked) here. 17 µM
